These measurements were taken from PubChem BioAssay (Tox21).

# methodNotes: qHTS assay to identify small molecule agonists of the estrogen related receptor (ERR) signaling pathway from Tox21 library (AID 1224849); further: on the % scale 0 is the no-effect control and ±100 the full control effect; nearly all actives have a fitted effect of over 15% in size
# conditionDetails: ERR reporter cell line, ONE-Glo luciferase, 18 h; at 92.4 µM (top of the series) unless noted
# Method: National Center for Advancing Translational Sciences [NCATS] NIH Chemical Genomics Center [NCGC] U.S. Environmental Protection Agency [EPA] National Institutes of Environmental Health Sciences [NIEHS] National Toxicology Program [NTP] […] The ERR cells were dispensed at 2,000 cells/5 ul/well in 1536-well white plates using a Multidrop dispenser. […] After 30-minute incubation at room temperature, the luminescence intensity in the plates was measured using a ViewLux plate reader.
The source made the active and inactive calls. The call rests on the fitted dose curve.
Reported activity change, positive = activation is given for each of the following molecules.

The cases that follow already have their activity change, positive = activation on record.
CC(=O)Oc1ccc2c(c1)CC[C@@H]1[C@@H]2CC[C@]2(C)[C@@H](O)CC[C@@H]12	-29.3% [at 42.5 µM] (inactive)
COc1cc2ncnc(Nc3ccc(F)c(Cl)c3)c2cc1OCCCN1CCOCC1	-47.8% [at 42.5 µM] (inactive)
CC(C)(C)C(=O)C(Oc1ccc(Cl)cc1)n1ccnc1 (stereo unspecified)	-21.7% [at 42.5 µM] (inactive)
CN1CCN(CCCN2c3ccccc3Sc3ccc(S(=O)(=O)N(C)C)cc32)CC1	-33.1% [at 42.5 µM] (inactive)
CN(C)C(=O)Nc1ccc(Oc2ccc(Cl)cc2)cc1	-44.7% (inactive)

[Q] Given the entry CCCc1c(OCCCOc2ccc(OCC(=O)O)cc2)ccc(C(C)=O)c1O , report its measured activity change, positive = activation.
[A] -8.13% (inactive)

[Q] Returns the measured activity change, positive = activation for the input molecule. Input: CSc1ccc(Oc2ccc(S(N)(=O)=O)cc2CN(C)C)cc1C
[A] -34.7% (inactive)

[Q] Which value of activity change, positive = activation has been reported for CC(C)(C)CC(C)(C)c1ccc(OCCO)cc1 in the records?
[A] -58.8% (inactive)

[Q] Return reported activity change, positive = activation; argument: CCCCCCCCCCCC(=O)[O][Sn]([CH2]CCC)([CH2]CCC)[O]C(=O)CCCCCCCCCCC
[A] -11.3% [at 42.5 µM] (inactive)

[Q] For the molecule C=CC(C)(O)CCCC(C)CCCC(C)CCCC(C)C (stereo unspecified) , what activity change, positive = activation is on record?
[A] -0.948% (inactive)

[Q] Query: activity change, positive = activation; subject: CNC(=O)N(c1ccccc1)c1ccccc1
[A] -5.23% (inactive)

* * *

# subjectOfTest: Glucocorticoid receptor (Homo sapiens) (UniProt P04150)
# Sequence (P04150 whole entry, looked up): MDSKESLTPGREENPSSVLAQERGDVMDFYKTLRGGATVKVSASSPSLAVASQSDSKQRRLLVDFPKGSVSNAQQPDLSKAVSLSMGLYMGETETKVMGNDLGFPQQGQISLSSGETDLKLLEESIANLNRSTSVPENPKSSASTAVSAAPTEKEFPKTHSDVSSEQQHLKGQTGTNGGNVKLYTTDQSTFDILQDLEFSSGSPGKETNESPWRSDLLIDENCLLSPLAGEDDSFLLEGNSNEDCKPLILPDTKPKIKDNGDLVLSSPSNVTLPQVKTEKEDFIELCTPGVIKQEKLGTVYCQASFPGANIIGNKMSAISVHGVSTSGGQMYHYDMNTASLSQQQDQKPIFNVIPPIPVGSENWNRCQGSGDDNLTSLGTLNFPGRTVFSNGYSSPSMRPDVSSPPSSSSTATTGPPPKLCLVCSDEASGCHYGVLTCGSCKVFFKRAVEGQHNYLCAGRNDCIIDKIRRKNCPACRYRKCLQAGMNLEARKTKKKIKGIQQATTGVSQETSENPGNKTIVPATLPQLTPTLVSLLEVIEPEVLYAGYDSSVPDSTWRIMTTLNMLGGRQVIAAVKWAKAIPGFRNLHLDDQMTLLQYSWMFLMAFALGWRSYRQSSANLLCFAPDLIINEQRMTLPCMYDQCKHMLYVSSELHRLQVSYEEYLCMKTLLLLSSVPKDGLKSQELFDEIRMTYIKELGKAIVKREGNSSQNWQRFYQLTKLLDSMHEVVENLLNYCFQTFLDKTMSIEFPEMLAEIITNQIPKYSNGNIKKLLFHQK
# methodNotes: qHTS assay to identify small molecule agonists of the glucocorticoid receptor (GR) signaling pathway (AID 720691); on activation: on the % scale 0 is the no-effect control and ±100 the full control effect
# conditionDetails: GR-bla HeLa, beta-lactamase reporter ratio, 18 h; series mostly up to 62.4 µM
The source made the active and inactive calls. Calls come from the whole dose curve; as a rule, active = well fitted activation curve with a large enough effect in the signal ratio in the repeat runs (not every such curve was filed as active); inconclusive = weak or mixed curves, or effect the other way; inactive = no such curve, though single readings can be large or run the other way; the % refers to the signal ratio.
Valid outcomes are listed here; reply with one: active, inactive

CN1CCCN=C1/C=C/c1cccs1	inactive
COCCOC(=O)C1=C(C)NC(C)=C(C(=O)OC/C=C/c2ccccc2)C1c1cccc([N+](=O)[O-])c1 (centres undefined)	inactive
C=C(C)C(=O)OCCOC(=O)CC(C)=O	inactive

[Q] What outcome does the record of this test show for CC1(C)O[C@@H]2C[C@H]3[C@@H]4CCC5=CC(=O)C=C[C@]5(C)[C@H]4[C@@H](O)C[C@]3(C)[C@]2(C(=O)CO)O1 ?
[A] active

[Q] Could you please tell me the result logged for CCCCCCCCCCCC[N+](C)(C)CCCS(=O)(=O)[O-] in this assay?
[A] inactive

[Q] Entry CC1=CC(=O)CC(C)(C)C1(O)/C=C/C(C)=C\C(=O)O (centres undefined) : call = ?
[A] inactive

[Q] Check the results log: what was the call for CC(=O)[C@H]1CC[C@H]2[C@@H]3C=CC4=CC(=O)CC[C@@]4(C)[C@@H]3CC[C@]12C ?
[A] active

[Q] # fetch the recorded call for N#C[C@@H]1C[C@@H]2C[C@@H]2N1C(=O)[C@@H](N)C12CC3CC(CC(O)(C3)C1)C2 here
[A] inactive

[Q] Test call, this compound: CSc1ccc(Oc2ccc(S(N)(=O)=O)cc2CN(C)C)cc1C
[A] inactive

[Q] # fetch the recorded call for O=C(O)c1ccc(CO)o1 here
[A] inactive

* * *

# methodNotes: qHTS assay to test for compound auto fluorescence at 535 nm (green) in HEK293 cell free culture (AID 720682); further: on the % scale 0 is the no-effect control and ±100 the full control effect
# conditionDetails: cell-free medium, green autofluorescence 485/535 nm, hits give high values; series mostly up to 91.3 µM
Activity calls are given as the source filed them. The call rests on the fitted dose curve; in most records, active means well fitted curve in the direction sought with a large enough effect in the repeat runs; inconclusive means weak or mixed curves; inactive means flat fitted curve, though single readings scatter.
measurementKind: activity change

CCC(=O)Oc1ccc(/C(CC)=C(\CC)c2ccc(OC(=O)CC)cc2)cc1	inactive
O=C(OCCOCCO)c1ccccc1Nc1cccc(C(F)(F)F)c1	0.0151% [at 18.6 µM] (inactive)
CC(C)c1nnc2ccc(-c3ocnc3-c3cc(F)ccc3F)cn12	inactive
OCCSc1ccccc1	inactive
CN(C)CCOC1=Cc2ccccc2Sc2ccc(Cl)cc21	inactive

[Q] # input molecule: CCCCCCCCCCCCCCCCBr ; wanted: its activity change
[A] 0.0082% [at 18.6 µM] (inactive)

[Q] Bench note: what activity change did Nc1nccs1 show?
[A] inactive

[Q] Dear colleague, I am looking for the recorded activity change of the following molecule: CCc1cccc(N(C)C(N)=Nc2cccc3ccccc23)c1
[A] inactive

[Q] Would you kindly share the measured activity change for CC1=CC(O)CC(C)(C)C1 (stereo unspecified) ?
[A] inactive

[Q] State the recorded activity change for this entry: CO[C@H]1C=CO[C@@]2(C)Oc3c(C)c(O)c4c(O)c(c5c(c4c3C2=O)=NC2(CCN(CC(C)C)CC2)N=5)NC(=O)/C(C)=C\C=C/[C@H](C)[C@H](O)[C@@H](C)[C@@H](O)[C@@H](C)[C@H](OC(C)=O)[C@@H]1C
[A] inactive

[Q] Can you share its activity change? I mean this molecule: CCCOc1ccc(S(=O)(=O)N2CCN(CC)CC2)cc1-c1nc2c(CC)n(Cc3ccccn3)nc2c(=O)[nH]1
[A] inactive

[Q] # input molecule: CC1=NN(c2ccc(C(=O)O)cc2)C(=O)C1 ; wanted: its activity change
[A] inactive

[Q] May I ask what activity change has been recorded for CC(N)CN (stereo unspecified) ?
[A] inactive

[Q] What does the data say about its activity change? Entry: Fc1c(F)c(F)c(Br)c(F)c1F
[A] inactive

[Q] activity change for CN1CCCN=C1/C=C/c1cccs1 ?
[A] inactive

[Q] Bench note: what activity change did O=C(Nc1ccc([N+](=O)[O-])cc1)Nc1ccc([N+](=O)[O-])cc1 show?
[A] inactive

[Q] Which activity change is reported for this molecule? Cc1cc2nc3ccc(=[N+](C)C)cc-3sc2cc1N
[A] inactive

* * *

# methodNotes: qHTS assay for identifying genotoxic compounds that show differential cytotoxicity against isogenic chicken DT40 cell lines with known DNA damage response pathways - wild type cell line (AID 743012); further: nearly all actives have a fitted effect of over 60% in size
# conditionDetails: DT40 wild type chicken cells viability, CellTiter-Glo, 40 h; series mostly up to 68.4 µM
Records with an inconclusive call do not appear. Active and inactive are the calls of the source. Calls come from the whole dose curve; as a rule, active = well fitted cell-killing curve with a large enough effect in the repeat runs; inconclusive = weak or mixed curves, or effect the other way; inactive = no such curve, though single readings can be large or run the other way.
# output must be one of active, inactive

O=C(CCCN1CCC(O)(c2ccc(Br)cc2)CC1)c1ccc(F)cc1	active
O=C(O)c1cccc(O)c1	inactive
CCc1c2c(nc3ccc(OC(=O)N4CCC(N5CCCCC5)CC4)cc13)-c1cc3c(c(=O)n1C2)COC(=O)[C@]3(O)CC	active
c1cc[c]([Bi]([c]2ccccc2)[c]2ccccc2)cc1	active
O=C(N[C@@H](c1ccccc1)[C@@H]1CCCCN1)c1cccc(C(F)(F)F)c1Cl	active

[Q] Write down the call the test reported for this compound. Item: C=CCOC(=O)/C=C\C(=O)OCC=C
[A] inactive

* * *

# subjectOfTest: Cytochrome P450 3A4 (Homo sapiens)
# methodNotes: Cytochrome P450 Family 3 Subfamily A Member 4 (CYP3A4) small molecule antagonists: luciferase reporter qHTS assay (AID 1671201); further: nearly all actives have a fitted effect of over 50% in size
# conditionDetails: P450-Glo CYP3A4 enzyme, luciferin luminescence, 1 h; series mostly up to 115 µM
Inconclusive results are not listed. Calls of active or inactive are those of the source. Calls come from the whole dose curve; as a rule, active = well fitted inhibition curve with a large enough effect in the repeat runs; inconclusive = weak or mixed curves; inactive = no such curve, though single readings can be large or run the other way.
Valid outcomes are listed here; reply with one: active, inactive

Nc1ccc(S(=O)(=O)O)c(N)c1	inactive

Now consider the entry below.
[Q] Can you look up the reported call for C/C=C/C=C/CCCCCCCO for me?
[A] active

* * *

# methodNotes: qHTS assay to identify small molecule agonists of the RXR signaling pathway - cell viability counter screen (AID 1159529); further: nearly all actives have a fitted effect of over 50% in size
# conditionDetails: RXR-alpha-bla HEK293T viability, CellTiter-Glo, 16 h; series mostly up to 76.8 µM
Records with an inconclusive call do not appear. The source made the active and inactive calls. Calls follow the shape of the dose curve; as a rule, active = well fitted cell-killing curve with a large enough effect in the repeat runs; inconclusive = weak or mixed curves, or effect the other way; inactive = no such curve, though single readings can be large or run the other way.
Choose the fitting class; nothing outside T for active, F for inactive is accepted.

Examples with answers:
CCC(C)=O	F
Nc1c(I)cc(I)c(C(=O)N(CCC(=O)O)c2ccccc2)c1I	F
CC1=C(C=O)C(C)(C)CCC1	F

[Q] Look up the recorded call for Cc1cc(C(=C2C=CC(=Nc3ccc(S(=O)(=O)O)cc3S(=O)(=O)O)C=C2)c2ccc(Nc3ccc(S(=O)(=O)O)cc3)cc2)ccc1N in this test.
[A] F

[Q] Field: outcome | Entry: CC(=O)Nc1ccccc1C
[A] F

[Q] Returns: the outcome recorded for CCCOc1ccc(S(=O)(=O)N2CCN(CC)CC2)cc1-c1nc2c(CC)n(Cc3ccccn3)nc2c(=O)[nH]1 in this assay.
[A] F

[Q] What was the test verdict on CCCCN(CCCC)C(=S)SSC(=S)N(CCCC)CCCC ?
[A] T

[Q] So what was the verdict on Oc1ccc(Nc2ccccc2)cc1 in this test?
[A] T

[Q] For CCc1cccc(N(C)C(N)=Nc2cccc3ccccc23)c1 , what call appears in the results of this test?
[A] F

[Q] What is the recorded call for this compound in the test? CC(C)CCCCCCOC(=O)CCCCC(=O)OCCCCCCC(C)C
[A] F

[Q] Please state the recorded outcome for this compound: C=C(C)C(=O)OCCOC(=O)CC(C)=O
[A] F
